Item-by-item account of binding score
Molecular target: T1, CaBdf1 BD2 (GST-tagged, wild-type) (Candida albicans (strain SC5314 / ATCC …, UniProt Q5A4W8))
T1 chain: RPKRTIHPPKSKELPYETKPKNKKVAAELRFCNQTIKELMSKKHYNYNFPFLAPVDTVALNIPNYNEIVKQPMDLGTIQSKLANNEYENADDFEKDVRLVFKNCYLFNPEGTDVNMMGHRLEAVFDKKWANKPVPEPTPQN
Assay: histone peptide array (Active Motif MODified), 1 uM GST-tagged bromodomain, anti-GST detection, normalized mean intensity
Square brackets hold non-standard residues; d marks the D form. Ends that are not written are not given here. Arg(Me2s) = CN=C(NC)NCCC[C@H](N)C(=O)O; pS = N[C@@H](COP(=O)(O)O)C(=O)O
metric name: binding score

- PRKQLATKAAR(Me2s)K(Me3)SAPATGG: 0.0037
- [pS]GRGKQGGK(Ac)ARAKAKSRSS [H2a 1-19]: 0.0137
- ARTK(Me)QTAR(me2s)K(Me)STGGKAPRKQ: 0.00592
- PDPAKSAPAPKKG[pS]K(Ac)KAVT [H2B 1-19]: 0.145
- PRKQLATKAA[Arg(Me2s)]K(Ac)[pS]APATGG: 0.00629
- ARTK(Me2)QTARKSTGGKAPRKQ: 0.00148
- ARTKQTARKSTGGKAPRKQ (A Rme2s pT Kme3 Q T A R K S T G G K A P R K Q): 0.00185

The values you see were collected from paper PMC5454392.
